- Test system: ACHN renal
- method_summary: NCI-60 one-dose screen, 48 h (100 = growth as untreated, 0 = no growth, -100 = all killed)
- condition: 10 µM unless noted
Compounds without any hit were thinned out: in the full panel of roughly 83,000, 20% have a hit.
measured_property: growth (%)
Use % as the unit, but write only the number.

1) O=C1NC(=S)/C(=C/c2cn(-c3ccccc3)nc2-c2ccccc2)S1 = 20.1

# growth measured on ACHN renal for item OC(c1ccccc1)(c1ccccc1)C1CCN(c2ccc3nnc(Cl)n3n2)CC1 = 29.7

---

- Tested on: MDA-MB-435 melanoma
- method_summary: NCI-60 one-dose screen, 48 h (100 = growth as untreated, 0 = no growth, -100 = all killed)
- condition: 10 µM unless noted
- Protocol: Growth inhibition of the MDA-MB-435 human Melanoma tumor cell line is measured as a screen for anti-cancer activity. Cells are grown in 96 well plates and exposed to the test compound for 48 hours. Compounds are tested at a single concentration, which is 10^-5 M for most compounds. The reported endpoint is percent growth (GI% or GIPRCNT), where numbers from 0 - 100% represent growth inhibition, and numbers from -100% - 0 represent cell death. […]
The panel holds about 83,000 compounds, 20% with a hit somewhere; the sample as a whole holds those more often.
measured_property: growth (%)
Numbers only; they are read as %.

Recorded growth, per entry:
1) Cc1ccc(C(C)C)cc1Oc1cccc(-c2c(-c3ccc(C(F)(F)F)cc3)ncn2C2CCNCC2)n1 = -93.4
2) COc1ccc(NC(=O)Cn2c(/C=C/c3ccc([N+](=O)[O-])cc3)nc3ccccc3c2=O)cc1 = 84.2
3) O=C(NC(=S)N1CCN(c2ncnc3c2cnn3-c2ccccc2)CC1)c1ccc(Br)cc1 = 80.3
4) COc1cc(/C=C/C(=O)c2cnn(-c3cc(=O)[nH]c4ccc(Br)cc34)c2C)cc(OC)c1OC = 0.423
5) N#CCc1nnc(NC(=O)c2ccc(-n3c(=O)[nH]c4ccccc4c3=O)cc2)s1 = 106

Form: molecule = CN1C(=O)/C(=C\C(=O)c2cc3ccccc3oc2=O)c2ccccc21 ; growth = 85.4

---

- System: UACC-62 melanoma
- method_summary: NCI-60 one-dose screen, 48 h (100 = growth as untreated, 0 = no growth, -100 = all killed)
- condition: 10 µM unless noted
About 83,000 compounds went through this panel and 20% of them were active in at least one assay; those are over-represented in the sample as a whole.
Catalogue of growth readings, one per entry.
# unit: % | format: bare number

1. COc1ccc(-c2cc(C)nc3[nH]c(=O)sc23)cc1 = 60.9
2. S=C(Nc1ccccc1)Nc1ccc(OCc2nc3ccc(Cl)cc3[nH]2)cc1 = 77.3
3. COc1ccccc1Nc1nnc(-c2c[nH]c3ccccc23)o1 = 22.9
4. O=CNc1cccc(-n2cnc3cc(-c4ccc(O)cc4)ccc32)c1 = 38.2
5. COc1ccc2oc(=O)c(-c3csc(N/N=C(\C)c4cc(OC)c(OC)c(OC)c4)n3)cc2c1 = 93.1
6. O=C(CSc1nnc(-c2ccc(-c3nc4ccc(Cl)cc4[nH]3)cc2)o1)Nc1ccc(Br)cc1 = -53.4

Consider CC(Nc1ncnc2ccc(-c3ccc4oc(N)nc4c3)cc12)c1ccccc1 (stereo not given) . Its measured growth is 11.9

The compound listed as COc1ccc(S(=O)(=O)Nc2ccc(-c3ccc4c(c3)NC(=O)/C4=C\c3ccc[nH]3)cc2)cc1OC shows growth equal to -45.9

Per the records, this compound ( Cc1ccc(-c2cc(-c3ccccc3)[nH]c(=O)c2C#N)cc1 ) has growth equal to 84.6

Per the records, this compound ( Cn1cc(-c2cc(N)n3nc(-c4c[nH]c5ccccc45)cc3n2)c2cc(F)ccc21 ) has growth equal to 66.3

---

- System: UACC-257 melanoma
- method_summary: NCI-60 one-dose screen, 48 h (100 = growth as untreated, 0 = no growth, -100 = all killed)
- condition: 10 µM unless noted
About 83,000 compounds went through this panel and 20% of them were active in at least one assay; those are over-represented in the sample as a whole.
Returns: string. Value is 1 if measured growth is below 40%, and -1 if it is greater than or equal to it.

1) O=C(NC(=S)N1CCN(c2ncnc3c2cnn3-c2ccccc2)CC1)c1ccc(F)cc1 = -1
2) CC1CCc2c(sc3nc(SCC(=O)c4cccc(Br)c4)n(-c4ccccc4)c(=O)c23)C1 (centres undefined) = -1
3) Cc1nc2sccn2c1-c1nnc(SCC(C)C)o1 = -1
4) Cn1cc(-c2cc(N)n3nc(-c4c[nH]c5ccccc45)cc3n2)c2cc(Br)ccc21 = 1
5) O=C(N=Nc1c(O)[nH]c2ccc(Cl)cc12)c1ccc2nc(-c3ccc(Cl)cc3)[nH]c2c1 = -1

## Input Quick check: growth of Cc1ccc(Cl)cc1NC(=O)N/C(N)=N/c1nc2ccccc2s1 under 40%?
## Output -1

## Input Does the reported growth of the following compound sit strictly below 40%? CN1CCN(CCS(=O)(=O)Nc2cc(-c3ccc4ncnc(Nc5ccc(F)c(Cl)c5)c4c3)cnc2Cl)CC1
## Output 1

## Input Would you kindly verify if growth of N#Cc1ccc(C(=O)NNC(=O)CSc2nc3sc4c(c3c(=O)n2-c2ccc(Cl)cc2)CCCC4)cc1 is strictly less than 40%?
## Output -1

## Input Find out if reported growth for CCc1ccccc1NC(=O)N/C(N)=N/c1nc2ccccc2s1 is less than 40%
## Output -1

---

- Tested on: MOLT-4 leukemia
- method_summary: NCI-60 one-dose screen, 48 h (100 = growth as untreated, 0 = no growth, -100 = all killed)
- condition: 10 µM unless noted
The panel holds about 83,000 compounds, 20% with a hit somewhere; the sample as a whole holds those more often.
Lab note: compare growth against 20%. Equal or greater, write met. Smaller, write not met.

Consider the worked cases shown below.
1. CCOc1ccc2[nH]c(=O)c(C(c3nnnn3CC3CCCO3)N3CCN(Cc4ccccc4)CC3)cc2c1 (centres undefined) = met
2. Cn1cc(-c2cc3nc(-c4cn(C)c5ncccc45)cc(N)n3n2)c2cc(F)ccc21 = met
3. S=C(Nc1ccccc1)Nc1ccc(OCc2nc3ccc(Cl)cc3[nH]2)cc1 = met
4. CCCCN1C(=O)/C(=C\C(=O)c2cc3ccccc3oc2=O)c2ccccc21 = not met
5. O=C(Nc1ccc(-c2ccc3c(c2)NC(=O)/C3=C\c2ccc[nH]2)cc1)Nc1cccc(Cl)c1 = not met
6. COc1cc2cc(C(=O)N3C[C@@H](CCl)c4c3cc(OC(=O)N(CCC(=O)N3CCN(C)CC3)[C@H]3CCSSC3)c3ccccc43)[nH]c2c(OC)c1OC = not met
7. N#CC1=C(c2cccs2)Nc2c(c(-c3ccccc3)nn2-c2ccccc2)C12C(=O)Nc1ccccc12 (centres undefined) = not met
8. CC1CCc2c(sc3nc(SCC(=O)c4cccc([N+](=O)[O-])c4)n(-c4ccccc4)c(=O)c23)C1 (centres undefined) = met

Next:
## Input Hello, I need to know if Cc1cccc(-c2ccccc2Oc2ccc3nnc(Cl)n3n2)c1 has measured growth not below 20%. Thanks!
## Output met

---

- Test system: SNB-19 CNS
- method_summary: NCI-60 one-dose screen, 48 h (100 = growth as untreated, 0 = no growth, -100 = all killed)
- condition: 10 µM unless noted
About 83,000 compounds went through this panel and 20% of them were active in at least one assay; those are over-represented in the sample as a whole.
measured_property: growth (%)
Numeric answer only, unit % assumed.

Solved cases below.
1) O=C(NN1C(=O)/C(=C/C=C/c2ccc([N+](=O)[O-])o2)SC1=S)c1ccncc1 = -96.8
2) CCN1CCN(Cc2ccc(C(=O)Nc3cccc(Nc4ccc5c(OC)cccc5n4)c3)cc2C(F)(F)F)CC1 = -99.7
3) COc1c(B(O)O)cc(F)cc1-c1nc2c(F)cc3[nH]ncc3c2c2c1CCCC2 = 7.54

The value of growth recorded for COc1ccc(/C=C/c2nc3ccccc3n3c(-c4cccc([N+](=O)[O-])c4)nnc23)cc1 when tested on SNB-19 CNS reads 15

Form: item CCCCNC(=S)Nc1ccc(OCc2nc3ccc(Cl)cc3[nH]2)cc1 ; test system SNB-19 CNS; growth: 53

Reported SNB-19 CNS growth for item CCCCCCCCCc1ccc(C(=O)Nc2cc(C)ccc2C(=O)OC)cc1 was 106

Reading of growth for O=C(Nc1ccc(-c2ccc3c(c2)NC(=O)/C3=C\c2ccc[nH]2)cc1)Nc1ccc(Cl)c(Cl)c1 with SNB-19 CNS: 67.5

Nc1nn2c(-c3cc4cc(Br)ccc4oc3=O)ccnc2c1N=Nc1ccccc1 tested on SNB-19 CNS gave growth: -54.5

Entry Cn1cc(-c2cc(N)n3nc(-c4c[nH]c5ccccc45)cc3n2)c2cc(F)ccc21 , tested on SNB-19 CNS, has a reported growth of 15
